- experimentSummary: Plasma glucose-lowering activity at a dosage of 0.001% in the diet in KKAy mice
- Format: functional, Mus musculus
Activity values by entry
Respond with the number and no other words.

The following compounds have reported results that may help.
compound: Cc1oc(-c2ccccc2)nc1COc1ccc(CCCC2OC(=O)NC2=O)cn1 (stereo not given)
measuredNumber: 53
--
compound: Cc1oc(-c2ccco2)nc1COc1ccc(CCCC2OC(=O)NC2=O)cc1 (stereo not given)
measuredNumber: 38
--
compound: Cc1oc(-c2ccccc2)nc1CCOc1ccc(CCC2OC(=O)NC2=O)cc1 (stereo not given)
measuredNumber: 18
--
compound: COc1cc(CCCC2OC(=O)NC2=O)ccc1OCc1nc(-c2ccco2)oc1C (stereo in doubt; (+)-64)
measuredNumber: 45

Pending compound:
## Task I have this compound here, COc1cc(CCCC2SC(=O)NC2=O)ccc1OCc1nc(-c2ccccc2)oc1C (stereo not given) , and I need its recorded Activity.
## Result 12

----------
- experimentSummary: Plasma glucose-lowering activity at a dosage of 0.005% in the diet in KKA(y) mice.
- Type: functional, Mus musculus
Decision: Activity beneath 30 gives fulfilled; Activity meeting or exceeding 30 gives not fulfilled.

For orientation, consider the following solved cases.
molecule: COc1cc(CCCC2SC(=O)NC2=O)ccc1OCc1nc(-c2ccccc2)oc1C (stereo not drawn)
categoryLabel: not fulfilled

molecule: Cc1oc(-c2ccccc2)nc1CCOc1ccc(CCCC2SC(=O)NC2=O)cc1 (stereo not drawn)
categoryLabel: fulfilled

molecule: COc1cc(CCCC2OC(=O)NC2=O)ccc1OCc1nc(-c2ccco2)oc1C (single isomer, unassigned; (-))
categoryLabel: fulfilled

molecule: Cc1oc(-c2ccccc2)nc1COc1ccc(CCCCCC2OC(=O)NC2=O)cc1 (stereo not drawn)
categoryLabel: not fulfilled

molecule: Cc1oc(-c2ccccc2)nc1COc1ccc(CCC2OC(=O)NC2=O)cc1 (stereo not drawn)
categoryLabel: not fulfilled

## Task In plain terms, does Cc1oc(-c2ccccc2)nc1COc1ccc(CCC2SC(=O)NC2=O)cc1 (stereo not drawn) come in under 30 for Activity?
## Result fulfilled

## Task Moving on to Cc1oc(-c2ccccc2)nc1COc1ccccc1CCCC1OC(=O)NC1=O (stereo not drawn)
## Result fulfilled

----------
- experimentSummary: Plasma lipid-lowering activity at a dosage of 0.001% in the diet in KKAy mice
- Format: functional, Mus musculus
Activity values by entry

## Task I have this compound here, Cc1oc(-c2ccccc2)nc1COc1ccc(CCCC2SC(=O)NC2=O)cc1 (stereo not drawn) , and I need its recorded Activity.
## Result <10

## Task Moving on to COc1cc(CCCC2OC(=O)NC2=O)ccc1OCc1nc(-c2ccco2)oc1C (stereo in doubt; 64)
## Result < 10

## Task Moving on to COc1cc(CCCC2OC(=O)NC2=O)ccc1OCc1nc(-c2ccco2)oc1C (single isomer, unassigned; (-))
## Result < 10

----------
Activity values by entry
- experimentSummary: Plasma lipid-lowering activity at a dosage of 0.005% in the diet in KKA(y) mice.
- Type: functional, Mus musculus
Respond with the number and no other words.

## Task I have this compound here, Cc1oc(-c2ccccc2)nc1COc1ccc(CCC2OC(=O)NC2=O)cc1 (stereo not drawn) , and I need its recorded Activity.
## Result 60

----------
- experimentSummary: Plasma lipid-lowering activity at a dosage of 0.005% in the diet in KKA(y) mice.
- Assay type: functional, Mus musculus
reportedMetric: Activity
Respond with the number and no other words.

compound: Cc1oc(-c2ccccc2)nc1COc1ccc(CCCCCC2OC(=O)NC2=O)cc1 (configuration not stated)
Activity: 59
//
compound: Cc1oc(-c2ccccc2)nc1CCC(=O)c1ccc(CCCC2OC(=O)NC2=O)cc1 (configuration not stated)
Activity: 17
//
compound: COc1cc(CCCC2SC(=O)NC2=O)ccc1OCc1nc(-c2ccccc2)oc1C (configuration not stated)
Activity: 58
//
compound: Cc1oc(-c2ccccc2)nc1COc1ccc(CCCC2OC(=O)NC2=O)cc1 (configuration not stated)
Activity: 83
//
compound: Cc1oc(-c2ccccc2)nc1COc1ccc(CCCCC2OC(=O)NC2=O)cc1 (configuration not stated)
Activity: 51
//
compound: Cc1oc(-c2ccccc2)nc1CCCc1ccc(CCCC2OC(=O)NC2=O)cc1 (configuration not stated)
Activity: 19

## Task I have this compound here, Cc1oc(-c2ccccc2)nc1CCOc1ccc(CCCCCC2OC(=O)NC2=O)cc1 (configuration not stated) , and I need its recorded Activity.
## Result 17

## Task Moving on to COc1cc(CCCC2OC(=O)NC2=O)ccc1OCc1nc(-c2ccco2)oc1C (stereo in doubt; 64)
## Result 74

## Task Moving on to Cc1oc(-c2ccccc2)nc1COc1ccc(CCCC2SC(=O)NC2=O)cc1 (configuration not stated)
## Result 37

## Task Moving on to Cc1oc(-c2cc3ccccc3o2)nc1COc1ccc(CCCC2OC(=O)NC2=O)cc1 (configuration not stated)
## Result 71

## Task Moving on to Cc1oc(-c2ccco2)nc1COc1ccc(CCCC2OC(=O)NC2=O)cc1 (configuration not stated)
## Result 58
